target: tetanus neurotoxin (TeNT), authentic tetanus holotoxin (Clostridium tetani, UniProt P04958 2-1315); test: competition ELISA on TeNT, binder biotinylated; competitor SVT15L-3FW4M
Sequence (P04958 2-457 limits assumed, chain 1 of 2): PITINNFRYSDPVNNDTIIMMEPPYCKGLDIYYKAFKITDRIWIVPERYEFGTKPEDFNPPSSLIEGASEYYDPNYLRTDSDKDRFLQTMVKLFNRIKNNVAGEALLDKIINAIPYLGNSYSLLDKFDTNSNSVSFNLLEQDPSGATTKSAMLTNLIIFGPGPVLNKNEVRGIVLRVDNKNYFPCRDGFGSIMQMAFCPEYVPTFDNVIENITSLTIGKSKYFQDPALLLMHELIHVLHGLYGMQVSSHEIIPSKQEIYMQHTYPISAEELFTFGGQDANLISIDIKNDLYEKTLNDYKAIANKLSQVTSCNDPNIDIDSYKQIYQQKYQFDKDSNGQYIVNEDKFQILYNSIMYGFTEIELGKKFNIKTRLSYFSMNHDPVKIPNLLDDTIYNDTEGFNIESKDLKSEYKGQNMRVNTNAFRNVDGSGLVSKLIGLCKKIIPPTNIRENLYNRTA
Sequence (P04958 458-1315 limits assumed, chain 2 of 2): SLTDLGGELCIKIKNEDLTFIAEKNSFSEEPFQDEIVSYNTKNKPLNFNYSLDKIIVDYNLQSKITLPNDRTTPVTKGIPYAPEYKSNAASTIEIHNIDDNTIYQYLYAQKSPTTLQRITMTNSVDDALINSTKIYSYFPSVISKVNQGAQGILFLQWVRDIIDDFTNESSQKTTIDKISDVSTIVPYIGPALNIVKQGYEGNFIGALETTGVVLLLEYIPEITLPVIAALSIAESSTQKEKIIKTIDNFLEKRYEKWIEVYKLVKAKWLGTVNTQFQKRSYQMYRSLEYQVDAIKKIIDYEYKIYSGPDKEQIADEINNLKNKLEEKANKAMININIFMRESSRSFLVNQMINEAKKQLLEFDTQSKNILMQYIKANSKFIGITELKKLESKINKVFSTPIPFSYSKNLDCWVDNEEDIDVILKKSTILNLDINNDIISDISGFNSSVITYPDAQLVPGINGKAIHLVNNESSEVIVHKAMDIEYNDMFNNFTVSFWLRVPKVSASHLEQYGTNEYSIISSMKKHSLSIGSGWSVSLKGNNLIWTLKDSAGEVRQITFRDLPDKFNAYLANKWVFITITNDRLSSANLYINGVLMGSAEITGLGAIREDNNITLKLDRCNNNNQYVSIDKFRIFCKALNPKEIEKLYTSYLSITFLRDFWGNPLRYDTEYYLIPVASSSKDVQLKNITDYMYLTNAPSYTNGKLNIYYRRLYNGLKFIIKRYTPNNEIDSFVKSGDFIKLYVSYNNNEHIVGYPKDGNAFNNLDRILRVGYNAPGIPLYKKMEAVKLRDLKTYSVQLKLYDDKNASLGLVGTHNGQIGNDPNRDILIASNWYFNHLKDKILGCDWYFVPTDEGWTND
Binary classification by % inhibition of binding, with 10% as an inclusive lower bound for satisfied; all other cases are not satisfied.

SVT02L (VHH) VHH: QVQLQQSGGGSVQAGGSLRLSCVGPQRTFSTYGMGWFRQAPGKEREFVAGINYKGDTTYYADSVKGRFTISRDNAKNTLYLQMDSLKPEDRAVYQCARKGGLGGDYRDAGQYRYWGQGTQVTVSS :: satisfied
SVT22L (VHH) VHH: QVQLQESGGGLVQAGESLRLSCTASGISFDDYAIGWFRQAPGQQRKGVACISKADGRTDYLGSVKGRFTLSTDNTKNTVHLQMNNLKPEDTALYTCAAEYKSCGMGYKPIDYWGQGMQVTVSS :: satisfied
SVT34L (VHH) VHH: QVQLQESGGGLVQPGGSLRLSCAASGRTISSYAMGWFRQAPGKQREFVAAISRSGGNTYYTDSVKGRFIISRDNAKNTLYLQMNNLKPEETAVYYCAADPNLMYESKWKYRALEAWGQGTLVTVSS :: satisfied
SVT13L (VHH) VHH: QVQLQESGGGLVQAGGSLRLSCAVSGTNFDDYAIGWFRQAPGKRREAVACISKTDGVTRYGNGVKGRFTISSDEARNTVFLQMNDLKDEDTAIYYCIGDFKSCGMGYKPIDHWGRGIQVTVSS :: not satisfied
SVT08L (VHH) VHH: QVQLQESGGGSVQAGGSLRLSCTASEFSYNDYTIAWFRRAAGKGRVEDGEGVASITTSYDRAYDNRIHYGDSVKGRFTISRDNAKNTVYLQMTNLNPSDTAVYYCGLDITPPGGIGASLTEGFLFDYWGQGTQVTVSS :: satisfied

Turning to the following binder.
Query: Would you say SVT15L (VHH) VHH: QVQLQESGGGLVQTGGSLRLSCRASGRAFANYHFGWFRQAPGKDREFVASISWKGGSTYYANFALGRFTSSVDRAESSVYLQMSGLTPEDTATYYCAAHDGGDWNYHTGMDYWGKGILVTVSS shows % inhibition of binding at minimum 10%?
Result: satisfied
